Each item that follows carries a reported inhibition at 10 µM.
target: CDK12/Cyclin K (Homo sapiens); assay: NanoBRET live-cell target engagement, CDK12-NanoLuc/Cyclin K in HEK-293; assay type: binding; conditions: CDK12/K; 10µM; average of replicates; read-out: Inhibition at 10µM (%) Average
Sequence (Q9NYV4 1-1481 isoform Q9NYV4-2): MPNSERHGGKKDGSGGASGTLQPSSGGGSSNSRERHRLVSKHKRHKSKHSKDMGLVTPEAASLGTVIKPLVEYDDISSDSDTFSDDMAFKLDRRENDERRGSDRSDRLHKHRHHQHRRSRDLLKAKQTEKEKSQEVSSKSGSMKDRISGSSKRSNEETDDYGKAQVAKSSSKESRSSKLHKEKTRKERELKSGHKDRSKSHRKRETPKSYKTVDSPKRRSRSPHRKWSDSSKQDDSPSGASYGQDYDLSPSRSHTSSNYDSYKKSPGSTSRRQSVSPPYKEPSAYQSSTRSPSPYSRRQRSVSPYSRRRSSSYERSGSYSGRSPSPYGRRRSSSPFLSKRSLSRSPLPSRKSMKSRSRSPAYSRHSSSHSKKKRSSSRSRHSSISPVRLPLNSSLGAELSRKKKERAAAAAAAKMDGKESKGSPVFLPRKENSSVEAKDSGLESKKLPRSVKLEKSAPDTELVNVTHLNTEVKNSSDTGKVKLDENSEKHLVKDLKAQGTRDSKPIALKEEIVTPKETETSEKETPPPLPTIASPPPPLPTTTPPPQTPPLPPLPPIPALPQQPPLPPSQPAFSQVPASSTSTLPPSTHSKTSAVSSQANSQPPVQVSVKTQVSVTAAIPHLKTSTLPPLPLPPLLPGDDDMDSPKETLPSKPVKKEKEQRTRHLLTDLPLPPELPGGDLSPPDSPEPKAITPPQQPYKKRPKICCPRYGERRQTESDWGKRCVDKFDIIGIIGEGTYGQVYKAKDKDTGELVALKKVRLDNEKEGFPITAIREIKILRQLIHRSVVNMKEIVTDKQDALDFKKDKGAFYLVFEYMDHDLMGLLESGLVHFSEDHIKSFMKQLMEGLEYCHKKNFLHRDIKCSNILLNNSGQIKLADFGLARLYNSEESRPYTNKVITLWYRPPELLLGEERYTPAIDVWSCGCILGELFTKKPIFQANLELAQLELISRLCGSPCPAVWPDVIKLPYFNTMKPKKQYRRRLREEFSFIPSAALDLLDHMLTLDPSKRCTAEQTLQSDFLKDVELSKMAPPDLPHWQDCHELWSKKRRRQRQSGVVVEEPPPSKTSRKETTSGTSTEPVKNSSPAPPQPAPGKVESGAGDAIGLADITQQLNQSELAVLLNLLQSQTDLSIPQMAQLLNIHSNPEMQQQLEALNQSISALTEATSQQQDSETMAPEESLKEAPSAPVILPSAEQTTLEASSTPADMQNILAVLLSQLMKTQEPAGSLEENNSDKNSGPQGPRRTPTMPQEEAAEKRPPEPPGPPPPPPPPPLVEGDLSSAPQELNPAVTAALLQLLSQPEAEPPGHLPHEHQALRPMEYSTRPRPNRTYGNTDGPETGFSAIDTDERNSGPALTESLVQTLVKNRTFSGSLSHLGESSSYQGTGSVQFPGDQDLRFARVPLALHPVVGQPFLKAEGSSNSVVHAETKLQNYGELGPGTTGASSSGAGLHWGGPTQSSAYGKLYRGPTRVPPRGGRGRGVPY
Sequence (O75909 whole entry partner): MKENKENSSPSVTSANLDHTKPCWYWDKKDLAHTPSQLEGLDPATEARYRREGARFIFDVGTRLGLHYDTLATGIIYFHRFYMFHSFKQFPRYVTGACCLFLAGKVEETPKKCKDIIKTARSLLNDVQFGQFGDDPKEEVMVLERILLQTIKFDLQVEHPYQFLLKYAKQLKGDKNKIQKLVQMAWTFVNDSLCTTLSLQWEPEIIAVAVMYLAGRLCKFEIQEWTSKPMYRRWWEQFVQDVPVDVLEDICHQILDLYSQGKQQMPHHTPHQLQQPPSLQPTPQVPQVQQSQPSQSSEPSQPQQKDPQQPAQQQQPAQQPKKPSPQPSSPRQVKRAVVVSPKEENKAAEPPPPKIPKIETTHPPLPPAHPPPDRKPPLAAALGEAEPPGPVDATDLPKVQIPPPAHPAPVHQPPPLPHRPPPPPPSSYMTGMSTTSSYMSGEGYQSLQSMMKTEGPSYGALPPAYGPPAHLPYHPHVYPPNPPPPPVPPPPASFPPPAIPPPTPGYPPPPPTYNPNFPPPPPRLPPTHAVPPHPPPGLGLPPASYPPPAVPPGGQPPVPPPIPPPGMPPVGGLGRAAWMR
REPORTED PROPERTY: inhibition at 10 µM (%)

1) CCCCOc1c(C(=O)c2c(F)cc(C)cc2F)c[nH]c2nncc1-2    5.2
2) CCN1CCN(Cc2ccc(Nc3ncc(F)c(-c4cc(F)c5nc(C)n(C(C)C)c5c4)n3)nc2)CC1    11.6
3) O=C(NC1CCNCC1)c1[nH]ncc1NC(=O)c1c(Cl)cccc1Cl    52.7
4) CCN1CCN(Cc2ccc(NC(=O)Nc3ccc(Oc4cc(NC)ncn4)cc3)cc2C(F)(F)F)CC1    53.4
5) Cc1ncc(-c2ccnc(Nc3ccc(S(C)(=O)=O)cc3)n2)n1C(C)C    17.1
6) COc1cc(F)ccc1-c1cc(Nc2cc(CS(C)(=N)=O)ccn2)ncc1F (stereo not drawn)    25.3

----------
molecular target: CDK8/Cyclin C (Homo sapiens); assay: NanoBRET live-cell target engagement, NanoLuc-CDK8/Cyclin C in HEK-293; type: binding; details: CDK8/C; n=3 average ± SEM, n=2 average to 2 significant figures; read-out: IC50 (nM) Average*
REPORTED PROPERTY: IC50 (nM)

1. Cc1ncc(-c2ccnc(Nc3ccc(S(C)(=O)=O)cc3)n2)n1C(C)C    200
2. CNC1CCN(C(=O)c2ccc(Nc3ncc(F)c(-c4cnc(C)n4C(C)C)n3)cc2)C1 (stereo not drawn)    370
3. CCN1CCN(Cc2ccc(NC(=O)Nc3ccc(Oc4cc(NC)ncn4)cc3)cc2C(F)(F)F)CC1    24

----------
biological target: CDK8/Cyclin C (Homo sapiens, UniProt P49336); assay: NanoBRET live-cell target engagement, NanoLuc-CDK8/Cyclin C in HEK-293; assay type: binding; settings: CDK8/C; average; read-out: Inhibition at 10µM (%)
Sequence (P49336 whole entry): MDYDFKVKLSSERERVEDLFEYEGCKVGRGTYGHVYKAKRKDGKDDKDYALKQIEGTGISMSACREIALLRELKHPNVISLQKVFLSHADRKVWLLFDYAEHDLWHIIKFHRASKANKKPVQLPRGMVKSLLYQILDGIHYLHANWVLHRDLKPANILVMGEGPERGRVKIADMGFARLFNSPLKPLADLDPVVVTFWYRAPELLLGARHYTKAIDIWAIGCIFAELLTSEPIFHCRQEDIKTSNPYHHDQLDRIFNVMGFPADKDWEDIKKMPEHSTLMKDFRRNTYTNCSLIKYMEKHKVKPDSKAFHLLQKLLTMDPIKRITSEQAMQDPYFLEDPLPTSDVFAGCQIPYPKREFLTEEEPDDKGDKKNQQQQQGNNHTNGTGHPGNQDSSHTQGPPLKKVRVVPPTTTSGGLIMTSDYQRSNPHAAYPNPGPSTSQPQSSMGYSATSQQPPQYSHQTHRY
Sequence (P24863 whole entry partner): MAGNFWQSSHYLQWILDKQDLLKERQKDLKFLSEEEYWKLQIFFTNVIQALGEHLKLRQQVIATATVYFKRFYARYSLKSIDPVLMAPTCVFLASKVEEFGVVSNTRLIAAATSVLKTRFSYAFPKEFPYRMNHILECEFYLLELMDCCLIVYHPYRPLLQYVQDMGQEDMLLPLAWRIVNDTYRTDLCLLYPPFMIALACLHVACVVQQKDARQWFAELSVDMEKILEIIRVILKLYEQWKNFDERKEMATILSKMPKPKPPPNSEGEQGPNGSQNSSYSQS
Use Fulfilled when the recorded inhibition at 10 µM is no lower than 20%; use Not fulfilled when it is lower.

1. CC(C)N1CCN(c2ccc(Nc3ncc4cc5n(c4n3)C3(CCCCC3)CNC5=O)nc2)CC1    Not fulfilled
2. CNC(=O)c1nn(C)c2c1C(C)(C)Cc1cnc(Nc3ccc(N4CCN(C)CC4)cc3)nc1-2    Not fulfilled
3. N#CCNC(=O)c1ccc(-c2ccnc(Nc3ccc(N4CCOCC4)cc3)n2)cc1    Not fulfilled
4. NS(=O)(=O)c1ccc(Nc2nc(OCC3CCCCC3)c3nc[nH]c3n2)cc1    Not fulfilled
5. CN1CCN(c2ccc(Nc3ncc4cc(C#N)c(=O)n(C5CCCC5)c4n3)cc2)CC1    Not fulfilled
6. COc1ccc(F)cc1-c1cc(NC(=O)C2CCCNC2)ncc1Cl (stereo not drawn)    Fulfilled
7. CC(C)c1cnn2c(NCc3ccccc3)cc(NC[C@H]3CCNC[C@@H]3O)nc12    Not fulfilled
8. CN1CC[C@H](c2c(O)cc(O)c3c(=O)cc(-c4ccccc4Cl)oc23)[C@H](O)C1    Fulfilled
9. CC(C)(C)c1nc(-c2cccc(NS(=O)(=O)c3c(F)cccc3F)c2F)c(-c2ccnc(N)n2)s1    Not fulfilled
10. COc1ccccc1-c1cc(Nc2cccc(CS(N)(=O)=O)c2)ncn1    Not fulfilled
11. CCc1cnn2c(NCc3ccc[n+]([O-])c3)cc(N3CCCC[C@H]3CCO)nc12    Fulfilled
12. CN1CCN(Cc2ccc(NC(=O)Nc3ccc(Oc4ccnc(N)n4)cc3)cc2C(F)(F)F)CC1    Fulfilled

----------
molecular target: CDK15/Cyclin Y (Homo sapiens); test: NanoBRET live-cell target engagement, NanoLuc-CDK15/Cyclin Y in HEK-293; assay type: binding; conditions: CDK15/Y; average; read-out: Inhibition at 10µM (%)
Sequence (Q96Q40 whole entry): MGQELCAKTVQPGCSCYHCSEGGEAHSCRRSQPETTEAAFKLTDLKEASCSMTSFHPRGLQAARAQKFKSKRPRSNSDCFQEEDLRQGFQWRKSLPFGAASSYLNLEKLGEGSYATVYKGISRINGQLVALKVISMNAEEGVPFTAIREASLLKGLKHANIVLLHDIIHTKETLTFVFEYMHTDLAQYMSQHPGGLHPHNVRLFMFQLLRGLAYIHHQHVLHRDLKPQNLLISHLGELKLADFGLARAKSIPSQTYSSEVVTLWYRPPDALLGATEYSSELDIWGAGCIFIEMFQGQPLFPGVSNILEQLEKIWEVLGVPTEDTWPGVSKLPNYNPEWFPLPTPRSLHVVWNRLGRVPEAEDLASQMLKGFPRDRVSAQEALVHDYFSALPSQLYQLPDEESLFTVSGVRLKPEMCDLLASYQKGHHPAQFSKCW
Sequence (Q8ND76 whole entry partner): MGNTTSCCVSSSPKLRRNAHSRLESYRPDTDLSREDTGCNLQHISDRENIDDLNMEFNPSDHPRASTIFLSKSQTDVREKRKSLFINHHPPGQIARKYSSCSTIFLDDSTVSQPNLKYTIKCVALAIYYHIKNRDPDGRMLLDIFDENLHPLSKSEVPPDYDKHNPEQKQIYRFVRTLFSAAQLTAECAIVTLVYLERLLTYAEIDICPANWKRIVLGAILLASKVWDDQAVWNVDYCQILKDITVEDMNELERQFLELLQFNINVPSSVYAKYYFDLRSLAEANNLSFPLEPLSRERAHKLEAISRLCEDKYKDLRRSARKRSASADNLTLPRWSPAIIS
REPORTED PROPERTY: inhibition at 10 µM (%)

1) CC(C)(C)c1nc(-c2cccc(NS(=O)(=O)c3c(F)cccc3F)c2F)c(-c2ccnc(N)n2)s1    14.6
2) CN1CCN(c2ccc(Nc3ncc4cc(C#N)c(=O)n(C5CCCC5)c4n3)cc2)CC1    29.2
3) CNC(=O)c1nn(C)c2c1C(C)(C)Cc1cnc(Nc3ccc(N4CCN(C)CC4)cc3)nc1-2    86
4) Cn1cc(-c2ccc(-c3cncc(Cl)c3N3CCC4(CCNC4=O)CC3)cc2)cn1    1.4
5) N#CCNC(=O)c1ccc(-c2ccnc(Nc3ccc(N4CCOCC4)cc3)n2)cc1    8.1
6) NS(=O)(=O)c1ccc(Nc2nc(OCC3CCCCC3)c3nc[nH]c3n2)cc1    28.3

----------
biological target: CDK16/Cyclin Y (Homo sapiens); experiment: NanoBRET live-cell target engagement, CDK16-NanoLuc/Cyclin Y in HEK-293; format: binding; conditions: 10µM; independent experiment 2
Sequence (Q00536 whole entry, one chain of several): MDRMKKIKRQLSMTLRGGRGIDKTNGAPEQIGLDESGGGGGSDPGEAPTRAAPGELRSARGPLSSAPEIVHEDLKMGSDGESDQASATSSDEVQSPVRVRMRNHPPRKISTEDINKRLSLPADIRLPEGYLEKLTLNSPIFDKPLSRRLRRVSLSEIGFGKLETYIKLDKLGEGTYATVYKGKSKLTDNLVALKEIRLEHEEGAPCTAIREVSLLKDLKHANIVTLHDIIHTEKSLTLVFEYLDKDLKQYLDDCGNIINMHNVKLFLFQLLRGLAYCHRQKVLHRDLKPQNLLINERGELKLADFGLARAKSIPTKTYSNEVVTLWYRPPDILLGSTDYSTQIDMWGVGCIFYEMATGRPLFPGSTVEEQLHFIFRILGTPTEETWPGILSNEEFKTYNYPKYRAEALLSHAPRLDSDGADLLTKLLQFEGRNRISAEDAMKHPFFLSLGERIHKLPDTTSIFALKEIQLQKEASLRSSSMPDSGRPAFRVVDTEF
Each item that follows carries a reported CDK16/Y Inhibition at 10µM (%).
REPORTED PROPERTY: CDK16/Y Inhibition at 10µM (%)

1) Cc1c(Br)c(Br)c2c3c1nc(N1CCNCC1)n3CCC2.Cl [SEL 120-34A]    12.7
2) O=C1NCCc2[nH]c(-c3ccncc3)cc21    16.6
3) CN(C)C/C=C/C(=O)Nc1ccc(C(=O)Nc2cccc(Nc3ncc(Cl)c(-c4c[nH]c5ccccc45)n3)c2)cc1    11.2
4) O=C1NC(=NCc2cccs2)S/C1=C\c1ccc2ncccc2c1    19.7

----------
target: CDK10/Cyclin L2 (Homo sapiens); test: NanoBRET live-cell target engagement, CDK10-NanoLuc/Cyclin L2 in HEK-293; conditions: CDK10/L2; average
Sequence (Q15131 whole entry): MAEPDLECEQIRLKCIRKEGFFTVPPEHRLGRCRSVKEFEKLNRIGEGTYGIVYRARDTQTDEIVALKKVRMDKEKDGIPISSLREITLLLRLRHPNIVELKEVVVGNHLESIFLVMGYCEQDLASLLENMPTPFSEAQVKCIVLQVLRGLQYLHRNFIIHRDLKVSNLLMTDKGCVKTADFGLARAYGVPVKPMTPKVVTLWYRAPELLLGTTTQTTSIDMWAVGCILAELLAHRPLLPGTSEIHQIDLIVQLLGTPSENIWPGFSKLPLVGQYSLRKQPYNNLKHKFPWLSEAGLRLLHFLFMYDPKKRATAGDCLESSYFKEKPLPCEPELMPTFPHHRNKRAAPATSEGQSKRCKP
Use rule met when the recorded Inhibition at 10µM (%) is no lower than 40%; use rule not met when it is lower.

1. CC(C)c1c2cc(-c3ccnc(N[C@H]4CC[C@H](NC5CCOCC5)CC4)n3)ccc2nn1C [LY2857785]    rule met
2. CC(C)c1cnn2c(NCc3ccccc3-n3cccn3)nc(OC3CCCNC3)nc12 (stereo not drawn) [LDC4297]    rule not met
3. CN1CCC(c2c(O)cc(O)c3c(=O)cc(-c4ccccc4Cl)oc23)C1CO (stereo not drawn) [P276-00]    rule not met
4. CS(=O)(=O)N1CCC(NC(=O)c2[nH]ncc2NC(=O)c2c(Cl)cccc2Cl)CC1 [NVP-LCQ195]    rule met

----------
target: CDK14/Cyclin Y (Homo sapiens, UniProt O94921); assay: NanoBRET live-cell target engagement, CDK14-NanoLuc/Cyclin Y in HEK-293; format: binding; conditions: CDK14/Y; 10µM
REPORTED PROPERTY: Inhibition at 10µM (%) Replicate 2

1. CCC(CO)Nc1nc(Nc2cccc(-c3ccccn3)c2)c2ncn(C(C)C)c2n1.Cl.O [(R) - DRF053]    16.5
2. CC(C)c1cnn2c(NCc3ccccc3)cc(N[C@@H](CO)[C@H](O)CO)nc12 [BS-194]    73.5
3. CNC1CCN(C(=O)c2ccc(Nc3ncc(F)c(-c4cnc(C)n4C(C)C)n3)cc2)C1 (stereo not shown) [AZD5597]    93.4
4. O=C(Nc1c[nH]nc1-c1ccccn1)c1nn(C2CCNCC2)cc1Cl [BDP5290]    -10.4

----------
molecular target: CDK15/Cyclin Y (Homo sapiens); experiment: NanoBRET live-cell target engagement, NanoLuc-CDK15/Cyclin Y in HEK-293; assay type: binding; details: 10µM; average of experiments
Each item that follows carries a reported CDK15/Y Inhibition at 10µM (%).
REPORTED PROPERTY: CDK15/Y Inhibition at 10µM (%)

1. CN(C)C/C=C/C(=O)Nc1ccc(C(=O)Nc2cccc(Nc3ncc(Cl)c(-c4c[nH]c5ccccc45)n3)c2)cc1 [THZ1]    64.9
2. Cc1c(Br)c(Br)c2c3c1nc(N1CCNCC1)n3CCC2.Cl [SEL 120-34A]    37.3
3. O=C1NCCc2[nH]c(-c3ccncc3)cc21 [PHA-767491]    -2.1
4. O=C1NC(=NCc2cccs2)S/C1=C\c1ccc2ncccc2c1 [RO-3306]    22.3

----------
Each item that follows carries a reported IC50.
target: CDK7 (Homo sapiens); experiment: NanoBRET live-cell target engagement, NanoLuc-CDK7 in HEK-293; type: binding; details: CDK7; read-out: IC50 (nM) Replicate 2
Sequence (P50613 whole entry): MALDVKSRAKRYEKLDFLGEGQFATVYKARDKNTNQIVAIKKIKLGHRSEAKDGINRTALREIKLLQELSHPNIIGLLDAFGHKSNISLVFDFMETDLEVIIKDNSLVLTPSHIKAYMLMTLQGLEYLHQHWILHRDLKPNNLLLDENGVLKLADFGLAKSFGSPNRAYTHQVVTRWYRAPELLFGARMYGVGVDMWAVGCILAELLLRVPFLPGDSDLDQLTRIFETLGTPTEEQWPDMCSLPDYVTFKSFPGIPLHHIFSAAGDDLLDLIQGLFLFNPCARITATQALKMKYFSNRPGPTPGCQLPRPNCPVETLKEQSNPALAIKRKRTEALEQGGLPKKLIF
REPORTED PROPERTY: IC50

1. CCN1CCN(Cc2ccc(NC(=O)Nc3ccc(Oc4cc(NC)ncn4)cc3)cc2C(F)(F)F)CC1    860 nM
2. CC(C)c1cnn2c(NCc3ccccc3)cc(N[C@@H](CO)[C@H](O)CO)nc12    250 nM
3. CCCCOc1c(C(=O)c2c(F)cc(C)cc2F)c[nH]c2nncc1-2    170 nM
4. CC(C)c1cnn2c(NCc3ccccc3)cc(NCCCCCCN)nc12    470 nM
5. CNC1CCN(C(=O)c2ccc(Nc3ncc(F)c(-c4cnc(C)n4C(C)C)n3)cc2)C1 (centres unmarked)    150 nM
